These entries and their values trace back to ChEMBL document CHEMBL1149696.

What MIC was measured for each of the following?
Test system: Streptococcus pyogenes
assayText: Antibacterial activity against erm containing Streptococcus pyogenes 1079
Type: functional
Returns: string containing the numeric result and its unit.

Sure, the documented MIC for CC[C@H]1OC(=O)[C@@](C)(F)C(=O)[C@H](C)[C@@H](O[C@@H]2O[C@H](C)C[C@H](N(C)C)[C@H]2O)[C@@](C)(OC)C[C@@H](C)C(=O)[C@H](C)[C@H]2N(C/C=C/Cn3cnc(-c4cccnc4)c3)C(=O)N[C@]12C is 4 µg/mL

Given item CC[C@H]1OC(=O)[C@@](C)(F)C(=O)[C@H](C)[C@@H](O[C@@H]2O[C@H](C)C[C@H](N(C)C)[C@H]2O)[C@@](C)(OC)C[C@@H](C)C(=O)[C@H](C)[C@H]2N(C/C=C/Cn3cnc(-c4cccnc4)c3)C(=O)N(C)[C@]12C , the value recorded as its MIC is 4 µg/mL

In plain terms, CC[C@H]1OC(=O)[C@@](C)(F)C(=O)[C@H](C)[C@@H](O[C@@H]2O[C@H](C)C[C@H](N(C)C)[C@H]2O)[C@@](C)(OC)C[C@@H](C)C(=O)[C@H](C)[C@H]2N(CCCCn3cnc(-c4cccnc4)c3)C(=O)N[C@]12C has a documented MIC of 4 µg/mL

CC[C@H]1OC(=O)[C@@](C)(F)C(=O)[C@H](C)[C@@H](O[C@@H]2O[C@H](C)C[C@H](N(C)C)[C@H]2O)[C@@](C)(OC)C[C@@H](C)C(=O)[C@H](C)[C@H]2N(CCCCn3cnc(-c4cccnc4)c3)C(=O)N(CC)[C@]12C has a reported MIC of 32 µg/mL

CC[C@H]1OC(=O)[C@@](C)(F)C(=O)[C@H](C)[C@@H](O[C@@H]2O[C@H](C)C[C@H](N(C)C)[C@H]2O)[C@@](C)(OC)C[C@@H](C)C(=O)[C@H](C)[C@H]2N(CCCCn3cnc(-c4cccnc4)c3)C(=O)N(C)[C@]12C yielded MIC of 8 µg/mL

Please fill in: MIC reported for CC[C@H]1OC(=O)[C@@](C)(F)C(=O)[C@H](C)[C@@H](O[C@@H]2O[C@H](C)C[C@H](N(C)C)[C@H]2O)[C@@](C)(OC)C[C@@H](C)C(=O)[C@H](C)[C@H]2N(C/C=C/Cn3cnc4cccnc43)C(=O)N[C@]12C = 2 µg/mL
